Task for the reader: assign each of the following compounds its reported relative viability.
system: NCI-H23; experiment: relative viability (nuclei count vs DMSO), 5 days (fraction); higher = more cells survive; conditions: first compound 0.03162 µM
Returns: the value as a bare number; no unit string appended.

# input Could you share which relative viability value was measured for CCN(CC)CCCCNc1ncc2cc(-c3cc(OC)cc(OC)c3)c(NC(=O)NC(C)(C)C)nc2n1 + O=C(c1cc(Cc2n[nH]c(=O)c3ccccc23)ccc1F)N1CCN(C(=O)C2CC2)CC1 [Olaparib] (partner 8 µM) ?
# output 0.226

# input Could you share which relative viability value was measured for O=c1cc(N2CCOCC2)oc2c(-c3cccc4c3sc3ccccc34)cccc12 + C[C@@H](Oc1cc(-c2cnn(C3CCNCC3)c2)cnc1N)c1c(Cl)ccc(F)c1Cl [Crizotinib] (partner 1 µM) ?
# output 0.586

# input Could you share which relative viability value was measured for CCN(CC)CCCCNc1ncc2cc(-c3cc(OC)cc(OC)c3)c(NC(=O)NC(C)(C)C)nc2n1 + NC(=O)Nc1cc(-c2cccc(F)c2)sc1C(=O)N[C@H]1CCCNC1 [AZD7762] (partner 0.2 µM) ?
# output 0.352

----------
test system: NCI-H1437; assay: relative viability (nuclei count vs DMSO), 5 days (fraction); higher = more cells survive; conditions: first compound 20 µM
Task for the reader: assign each of the following compounds its reported relative viability.

# input Could you share which relative viability value was measured for COCC1(CO)C(=O)C2CCN1CC2 (centres undefined) [PRIMA-1MET] + CC(C)C[C@H](NC(=O)[C@H](Cc1ccccc1)NC(=O)c1cnccn1)B(O)O [Bortezomib] (partner 0.002 µM) ?
# output 0.432

# input Could you share which relative viability value was measured for COCC1(CO)C(=O)C2CCN1CC2 (centres undefined) [PRIMA-1MET] + COc1cc2c(Oc3ccc(NC(=O)C4(C(=O)Nc5ccc(F)cc5)CC4)cc3F)ccnc2cc1OCCCN1CCOCC1 [Foretinib] (partner 0.25 µM) ?
# output 1.17

# input Could you share which relative viability value was measured for COCC1(CO)C(=O)C2CCN1CC2 (centres undefined) [PRIMA-1MET] + C[C@]1(O)C[C@@H](c2nc(-c3ccc4ccc(-c5ccccc5)nc4c3)c3c(N)nccn32)C1 [Linsitinib] (partner 1 µM) ?
# output 0.753

# input Could you share which relative viability value was measured for COCC1(CO)C(=O)C2CCN1CC2 (centres undefined) [PRIMA-1MET] + CS(=O)(=O)CCNCc1ccc(-c2ccc3ncnc(Nc4ccc(OCc5cccc(F)c5)c(Cl)c4)c3c2)o1 [Lapatinib] (partner 2 µM) ?
# output 0.694

----------
system: ABC-1; test: relative viability (nuclei count vs DMSO), 5 days (fraction); higher = more cells survive; conditions: first compound 1 µM
Task for the reader: assign each of the following molecules its reported relative viability.
Returns: the value as a bare number; no unit string appended.

# input Could you share which relative viability value was measured for CCN(CC)CCCCNc1ncc2cc(-c3cc(OC)cc(OC)c3)c(NC(=O)NC(C)(C)C)nc2n1 + CS(=O)(=O)N1CCN(Cc2cc3nc(-c4cccc5[nH]ncc45)nc(N4CCOCC4)c3s2)CC1 [Pictilisib] (partner 1 µM) ?
# output 0.671

# input Could you share which relative viability value was measured for CCN(CC)CCCCNc1ncc2cc(-c3cc(OC)cc(OC)c3)c(NC(=O)NC(C)(C)C)nc2n1 + NC(=O)Nc1cc(-c2cccc(F)c2)sc1C(=O)N[C@H]1CCCNC1 [AZD7762] (partner 0.2 µM) ?
# output 0.825

# input Could you share which relative viability value was measured for O=c1cc(N2CCOCC2)oc2c(-c3cccc4c3sc3ccccc34)cccc12 + C[C@]1(O)C[C@@H](c2nc(-c3ccc4ccc(-c5ccccc5)nc4c3)c3c(N)nccn32)C1 [Linsitinib] (partner 1 µM) ?
# output 0.586

# input Could you share which relative viability value was measured for O=c1cc(N2CCOCC2)oc2c(-c3cccc4c3sc3ccccc34)cccc12 + CS(=O)(=O)CCNCc1ccc(-c2ccc3ncnc(Nc4ccc(OCc5cccc(F)c5)c(Cl)c4)c3c2)o1 [Lapatinib] (partner 2 µM) ?
# output 1.2
